Below: a set of entries, each annotated with reported MIC.
Test system: Mycobacterium avium subsp. avium ATCC 25291
Readout type: MIC (µg/mL)

[[record]]
compound = "CSc1ccc2c(c1)N(CCC1CCCCN1C)c1ccccc1S2 (stereo not given)"
readout_type = "MIC"
result_unit = "µg/mL"
reading_qualifier = "="
endpoint_value = 6.25

[[record]]
compound = "CCCOc1ccc(-c2cn(CCN(CC)CC)c3ccccc3c2=O)cc1"
readout_type = "MIC"
result_unit = "µg/mL"
reading_qualifier = "="
endpoint_value = 25

[[record]]
compound = "CCCOc1ccc(-c2cn(CCN3CCCCC3)c3ccccc3c2=O)cc1"
readout_type = "MIC"
result_unit = "µg/mL"
reading_qualifier = "<"
endpoint_value = 0.39

[[record]]
compound = "CCCOc1ccc(-c2cn(CCN3CCCCCC3)c3ccccc3c2=O)cc1"
readout_type = "MIC"
result_unit = "µg/mL"
reading_qualifier = "<"
endpoint_value = 0.39

[[record]]
compound = "CN(C)CCCN1c2ccccc2Sc2ccc(Cl)cc21"
readout_type = "MIC"
result_unit = "µg/mL"
reading_qualifier = "<"
endpoint_value = 0.39


====

Tested on: Mycobacterium avium
Applied conditions: isolate MAV2
Below: a set of entries, each annotated with reported MIC.
Readout type: MIC (mg/L)

[[record]]
compound = "CSc1ccc2c(c1)N(CCC1CCCCN1C)c1ccccc1S2 (stereo not given)"
readout_type = "MIC"
endpoint_value = 0.25

[[record]]
compound = "CCCOc1ccc(-c2cn(CCN3CCCCC3)c3ccccc3c2=O)cc1"
readout_type = "MIC"
endpoint_value = 1

[[record]]
compound = "CCCOc1ccc(-c2cn(CCN(CC)CC)c3ccccc3c2=O)cc1"
readout_type = "MIC"
endpoint_value = 2

[[record]]
compound = "CCCOc1ccc(-c2cn(CCN3CCCCCC3)c3ccccc3c2=O)cc1"
readout_type = "MIC"
endpoint_value = 2

[[record]]
compound = "CN(C)CCCN1c2ccccc2Sc2ccc(Cl)cc21"
readout_type = "MIC"
endpoint_value = 4


====

Below: a set of entries, each annotated with reported MIC.
System: Mycobacterium avium
Protocol: Antimycobacterial activity against Mycobacterium avium isolate MAV1 assessed as reduction in bacterial viability incubated for 3 days by MTT assay
Format: organism-based
Applied conditions: in vitro, 72 h
Readout type: MIC (µg/mL)

[[record]]
molecule = "CCCOc1ccc(-c2cn(CCN3CCCCC3)c3ccccc3c2=O)cc1"
result_unit = "µg/mL"
endpoint_value = 128

[[record]]
molecule = "O=C(O)c1cn(C2CC2)c2cc(N3CCNCC3)c(F)cc2c1=O [CIPROFLOXACIN]"
result_unit = "µg/mL"
endpoint_value = 2

[[record]]
molecule = "CN(C)CCCN1c2ccccc2Sc2ccc(Cl)cc21 [CHLORPROMAZINE]"
result_unit = "µg/mL"
endpoint_value = 30

[[record]]
molecule = "CC[C@H]1OC(=O)[C@H](C)[C@@H](O[C@H]2C[C@@](C)(OC)[C@@H](O)[C@H](C)O2)[C@H](C)[C@@H](O[C@@H]2O[C@H](C)C[C@H](N(C)C)[C@H]2O)[C@](C)(OC)C[C@@H](C)C(=O)[C@H](C)[C@@H](O)[C@]1(C)O [CLARITHROMYCIN]"
result_unit = "µg/mL"
endpoint_value = 4

[[record]]
molecule = "CCCOc1ccc(-c2cn(CCN(CC)CC)c3ccccc3c2=O)cc1"
result_unit = "µg/mL"
endpoint_value = 128

[[record]]
molecule = "CC[n+]1c(-c2ccccc2)c2cc(N)ccc2c2ccc(N)cc21.[Br-] [HOMIDIUM BROMIDE]"
result_unit = "µg/mL"
endpoint_value = 25

[[record]]
molecule = "COc1ccc(CCN(C)CCCC(C#N)(c2ccc(OC)c(OC)c2)C(C)C)cc1OC (stereo unspecified)"
result_unit = "µg/mL"
endpoint_value = 400

[[record]]
molecule = "CSc1ccc2c(c1)N(CCC1CCCCN1C)c1ccccc1S2 (stereo unspecified) [THIORIDAZINE]"
result_unit = "µg/mL"
endpoint_value = 30

[[record]]
molecule = "CCCOc1ccc(-c2cn(CCN3CCCCCC3)c3ccccc3c2=O)cc1"
result_unit = "µg/mL"
endpoint_value = 128

[[record]]
molecule = "CC1COc2c(N3CCN(C)CC3)c(F)cc3c(=O)c(C(=O)O)cn1c23 (stereo unspecified) [OFLOXACIN]"
result_unit = "µg/mL"
endpoint_value = 4

[[record]]
molecule = "CC[C@H]1OC(=O)[C@H](C)[C@@H](O[C@H]2C[C@@](C)(OC)[C@@H](O)[C@H](C)O2)[C@H](C)[C@@H](O[C@@H]2O[C@H](C)C[C@H](N(C)C)[C@H]2O)[C@](C)(O)C[C@@H](C)CN(C)[C@H](C)[C@@H](O)[C@]1(C)O [AZITHROMYCIN]"
result_unit = "µg/mL"
endpoint_value = 256


====

Tested on: Mycobacterium avium subsp. avium ATCC 25291
Readout type: MIC (µg/mL)

[[record]]
compound = "CN(C)CCCN1c2ccccc2Sc2ccc(Cl)cc21 [CHLORPROMAZINE]"
readout_type = "MIC"
endpoint_value = 12.5

[[record]]
compound = "CCCOc1ccc(-c2cn(CCN3CCCCC3)c3ccccc3c2=O)cc1"
readout_type = "MIC"
endpoint_value = 12.5

[[record]]
compound = "CSc1ccc2c(c1)N(CCC1CCCCN1C)c1ccccc1S2 (stereo not given) [THIORIDAZINE]"
readout_type = "MIC"
endpoint_value = 25

[[record]]
compound = "CCCOc1ccc(-c2cn(CCN3CCCCCC3)c3ccccc3c2=O)cc1"
readout_type = "MIC"
endpoint_value = 6.25

[[record]]
compound = "CCCOc1ccc(-c2cn(CCN(CC)CC)c3ccccc3c2=O)cc1"
readout_type = "MIC"
endpoint_value = 25


====

System: Mycobacterium avium
Applied conditions: isolate MAV1
Readout type: MIC

[[record]]
compound = "CSc1ccc2c(c1)N(CCC1CCCCN1C)c1ccccc1S2 (stereo not given)"
endpoint_value = "< 0.031 µg/mL"

[[record]]
compound = "CCCOc1ccc(-c2cn(CCN3CCCCC3)c3ccccc3c2=O)cc1"
endpoint_value = "< 0.125 µg/mL"

[[record]]
compound = "CCCOc1ccc(-c2cn(CCN3CCCCCC3)c3ccccc3c2=O)cc1"
endpoint_value = "< 0.125 µg/mL"

[[record]]
compound = "CN(C)CCCN1c2ccccc2Sc2ccc(Cl)cc21"
endpoint_value = "< 0.031 µg/mL"

[[record]]
compound = "CCCOc1ccc(-c2cn(CCN(CC)CC)c3ccccc3c2=O)cc1"
endpoint_value = "0.5 µg/mL"


====

Assay read-out MIC; system under study: Mycobacterium avium subsp. avium ATCC 25291.
Readout type: MIC (µg/mL)

[[record]]
molecule = "CCCOc1ccc(-c2cn(CCN3CCCCC3)c3ccccc3c2=O)cc1"
reading_qualifier = "<"
endpoint_value = 1

[[record]]
molecule = "CCCOc1ccc(-c2cn(CCN3CCCCCC3)c3ccccc3c2=O)cc1"
reading_qualifier = "<"
endpoint_value = 1

[[record]]
molecule = "CSc1ccc2c(c1)N(CCC1CCCCN1C)c1ccccc1S2 (stereo not given) [THIORIDAZINE]"
reading_qualifier = "="
endpoint_value = 4

[[record]]
molecule = "CN(C)CCCN1c2ccccc2Sc2ccc(Cl)cc21 [CHLORPROMAZINE]"
reading_qualifier = "<"
endpoint_value = 1

[[record]]
molecule = "CCCOc1ccc(-c2cn(CCN(CC)CC)c3ccccc3c2=O)cc1"
reading_qualifier = "="
endpoint_value = 128


====

System: Mycobacterium avium
Applied conditions: isolate MAV4
Description: Inhibition of multidrug resistance efflux pump in Mycobacterium avium isolate MAV4 assessed as potentiation of ethidium bromide-induced antibacterial activity by measuring ethidium bromide MIC at 1/4 MIC incubated for 3 days by MTT assay
Below: a set of entries, each annotated with reported MIC.
Readout type: MIC (µg/mL)

[[record]]
compound = "CN(C)CCCN1c2ccccc2Sc2ccc(Cl)cc21"
endpoint_value = 12.5

[[record]]
compound = "CSc1ccc2c(c1)N(CCC1CCCCN1C)c1ccccc1S2 (stereo not given)"
endpoint_value = 25

[[record]]
compound = "CCCOc1ccc(-c2cn(CCN3CCCCCC3)c3ccccc3c2=O)cc1"
endpoint_value = 3.12

[[record]]
compound = "CCCOc1ccc(-c2cn(CCN3CCCCC3)c3ccccc3c2=O)cc1"
endpoint_value = 3.12

[[record]]
compound = "CCCOc1ccc(-c2cn(CCN(CC)CC)c3ccccc3c2=O)cc1"
endpoint_value = 12.5


====

Test system: Mycobacterium avium
Applied conditions: isolate MAV3
Below: a set of entries, each annotated with reported MIC.
Readout type: MIC (µg/mL)

[[record]]
compound = "CCCOc1ccc(-c2cn(CCN(CC)CC)c3ccccc3c2=O)cc1"
result_unit = "µg/mL"
endpoint_value = 32

[[record]]
compound = "CSc1ccc2c(c1)N(CCC1CCCCN1C)c1ccccc1S2 (stereo not given)"
result_unit = "µg/mL"
endpoint_value = 4

[[record]]
compound = "CCCOc1ccc(-c2cn(CCN3CCCCC3)c3ccccc3c2=O)cc1"
result_unit = "µg/mL"
endpoint_value = 2

[[record]]
compound = "CCCOc1ccc(-c2cn(CCN3CCCCCC3)c3ccccc3c2=O)cc1"
result_unit = "µg/mL"
endpoint_value = 4

[[record]]
compound = "CN(C)CCCN1c2ccccc2Sc2ccc(Cl)cc21"
result_unit = "µg/mL"
endpoint_value = 4

